Each recorded value in this set is attributed to PubChem BioAssay.

# Experimental protocol: inhibitors of TNFa-induced NFkB p65 translocation, primary screen, imaging, HUVEC, MLSMR starter and 10KST1 sets (AID 438);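 note: compound added about 3h40 before a 20 min TNFalpha stimulation; signal is the nuclear over cytoplasmic p65 intensity ratio per well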
# Condition summary: HUVEC TNFa-induced p65 nuclear translocation; at 2 µM, hits give high values, 0% TNFa-plus-vehicle, 100% no-TNFa wells
Readout label: inhibition (%)
Entry rule: numbers only, all in %.

Solved entries (count: 5):
| Compound | Readout label | Unit | Value reported |
| --- | --- | --- | --- |
| CCSc1nnc(NC(=O)C(CC)(C(F)(F)F)C(F)(F)F)s1 | inhibition | % | 0.2 |
| Cc1nc2c(o1)CCc1ccccc1C2O (centres undefined) | inhibition | % | 3.6 |
| Cn1ncc2c(Nc3ccccc3Br)ncnc21 | inhibition | % | -21 |
| CCOc1nc(Oc2cccc(C(=O)O)c2)nc(Oc2cccc(C(=O)O)c2)n1 | inhibition | % | -14.8 |
| CCOC(=O)COc1nc(N(C)C)nc(N(C)C)n1 | inhibition | % | -15 |

Entry under review: CCOC(=O)C1=C(C)NC(=O)NC1c1ccc2c(c1)OCO2 (centres undefined) . Reported inhibition?
-9.5

And for Cc1oc2cc(O)ccc2c(=O)c1-c1cnn(-c2ccccc2)c1 ?
-6.5

Item: Cn1c(O)c(C=Nc2ccc(Cc3ccncc3)cc2)c(=O)n(C)c1=O
6.6

Another compound: O=C(OCCCN1CCCC1)C1(c2ccccc2)CCCC1
2.6

How about CCOC(=O)C1CCCN(c2nc3ccccc3nc2C(C#N)C(=O)OC(C)C)C1 (centres undefined) ?
-8.3
